Catalogue of compounds with associated GI50
Tested on: MCF7
EXPERIMENTAL PROTOCOL: NCI tumour cell line growth inhibition, 48 h
Activity calls are given as the source filed them. Cut-off read from the data, not from the text of the source: active = GI50 up to about 1.1 µM and inactive = higher.
MEASURE NAME: GI50

COMPOUND: CCOC(=O)c1nc2ccccc2nc1Oc1ccc(OC)cc1
MEASURED RESULT: > 100 µM (inactive)
--
COMPOUND: CC(=O)C1(C)CC(C#N)(C#N)C(C#N)=C1N (centres undefined)
MEASURED RESULT: > 100 µM (inactive)
--
COMPOUND: Cn1c(=O)c2c(nc3n2CCCC(=O)N3CCCCl)n(C)c1=O
MEASURED RESULT: > 100 µM (inactive)
--
COMPOUND: COC(=O)C[C@H]1[C@]2(C)C3=C(C)[C@H](c4ccoc4)CC3O[C@@H]2[C@@H]2OC(=O)[C@]3(C)CCC(=O)[C@@]1(C)[C@@H]23 (some centres undefined)
MEASURED RESULT: 31.4 µM (inactive)
